# systemUnderTest: purified human Factor XIa (Homo sapiens (Human))
# methodNotes: Factor XIa chromogenic substrate (S-2366) inhibition assay
# Format: biochemical
# assaySetup: substrate S-2366, activity ranges, Table A
Entries and their measured Ki follow.

compound	Ki
CCOC(=O)c1ccc(NC(=O)C2c3cccc(N4CCC(N5CCCC5)CC4)c3CCN2C(=O)/C=C/c2c(C(C)=O)ccc(Cl)c2F)cc1 (racemic)	5 to 10 nM

Report value: Ki, system: purified human Factor XIa (Homo sapiens (Human)), compound: O=C(O)c1ccc(NC(=O)C2c3cccc(N4CCC(N5CCCC5=O)CC4)c3CCN2C(=O)/C=C/c2c(-n3cnnn3)ccc(Cl)c2F)cc1 (racemic)
< 5 nM

Report value: Ki, system: purified human Factor XIa (Homo sapiens (Human)), compound: COC(=O)Nc1ccc(NC(=O)C2c3cccc(N4CCC(N5CCCC5)CC4)c3CCN2C(=O)/C=C/c2c(-n3cnnn3)ccc(Cl)c2F)cc1 (racemic)
< 5 nM

Report value: Ki, system: purified human Factor XIa (Homo sapiens (Human)), compound: O=C(O)c1ccc(NC(=O)C2c3cccc(N4CCCNCC4)c3CCN2C(=O)/C=C/c2c(-n3cnnn3)ccc(Cl)c2F)cc1 (racemic)
< 5 nM

Report value: Ki, system: purified human Factor XIa (Homo sapiens (Human)), compound: CN(C)CCN1CCN(c2cccc3c2CCN(C(=O)/C=C/c2c(-n4cnnn4)ccc(Cl)c2F)C3C(=O)Nc2ccc(C(=O)O)cc2)CCC1=O (racemic)
< 5 nM

Report value: Ki, system: purified human Factor XIa (Homo sapiens (Human)), compound: O=C1CCC2(CCN(c3cccc4c3CCN(C(=O)/C=C/c3c(-n5cnnn5)ccc(Cl)c3F)C4C(=O)Nc3ccc(C(=O)O)cc3)CC2)O1 (racemic)
< 5 nM

----------
Entries and their measured pKi follow.
# systemUnderTest: UniProt:P03951
# methodNotes: Factor XIa chromogenic substrate (S-2366) inhibition assay
# Assay type: biochemical
# assaySetup: substrate S-2366, activity ranges, Table A
pKi: −log10 of the molar value. Where a name gives a salt, the structure may show the parent alone.

compound	pKi
O=C(Nc1ccc2cn[nH]c2c1)C1c2cccc(N3CCNCC3)c2CCN1C(=O)/C=C/c1c(-n2cnnn2)ccc(Cl)c1F (stereo not drawn)	> 8.30
CN1CCN(c2cccc3c2CCN(C(=O)C=Cc2c(-n4cnnn4)ccc(Cl)c2F)C3C(=O)Nc2ccc(C(=O)O)cc2)CC1 (stereo not drawn) [compound 31]	> 8.30
COC1CCN(c2cccc3c2CCN(C(=O)/C=C/c2c(-n4cnnn4)ccc(Cl)c2F)[C@@H]3C(=O)Nc2ccc(C(=O)O)cc2)CC1	> 8.30
CCOC(=O)CCNC(=O)N1CCN(c2cccc3c2CCN(C(=O)/C=C/c2cc(Cl)ccc2-n2cnnn2)C3C(=O)Nc2ccc(C(=O)O)cc2)CC1 (stereo not drawn)	> 8.30
CCCCOC(=O)c1ccc(NC(=O)C2c3cccc(N4CCC(N5CCCC5)CC4)c3CCN2C(=O)C=Cc2c(-n3cnnn3)ccc(Cl)c2F)cc1 (stereo not drawn) [Example 114]	> 8.30

Please report the measured pKi for O=C(O)c1ccc(NC(=O)C2c3cccc(N4CCC(N5CCCC5)CC4)c3CCN2C(=O)/C=C/c2cc(Cl)ccc2OC(F)F)cc1 (racemic)
> 8.30

Please report the measured pKi for O=C(O)c1ccc(NC(=O)C2c3cccc(N4CCC(O)CC4)c3CCN2C(=O)/C=C/c2c(-n3cnnn3)ccc(Cl)c2F)cc1 (racemic)
> 8.30

Please report the measured pKi for CCOC(=O)c1ccc(NC(=O)[C@@H]2c3cccc(N4CCN(C)CC4=O)c3CCN2C(=O)/C=C/c2c(-n3cnnn3)ccc(Cl)c2F)cc1 [Example 192, TFA Salt]
8.00 to 8.30

----------
# systemUnderTest: purified human Factor XIa (Homo sapiens (Human))
# methodNotes: Factor XIa chromogenic substrate (S-2366) inhibition assay
# Format: biochemical
# assaySetup: substrate S-2366, activity ranges, Table A
Entries and their measured Ki follow.

Worked examples, 2 molecules total:
molecule	measureName	result
COc1cccc(NC(=O)c2ccc(NC(=O)C3c4cccc(N5CCNCC5)c4CCN3C(=O)/C=C/c3cc(Cl)c(F)cc3-n3cnnn3)cc2)c1 (racemic) [Example 75]	Ki	100 to 500 nM
CC(=O)c1ccc(Cl)c(F)c1C=CC(=O)N1CCc2c(cccc2N2CCC(N3CCCC3)CC2)C1C(=O)Nc1ccc(C(=O)OCC(=O)N(C)C)cc1 (stereo not drawn) [Example 172]	Ki	< 5 nM

Report value: Ki, system: purified human Factor XIa (Homo sapiens (Human)), molecule: O=C(O)c1ccc(NC(=O)C2c3cccc(N4CCC(c5ccccc5)CC4)c3CCN2C(=O)/C=C/c2c(-n3cnnn3)ccc(Cl)c2F)cc1 (racemic) [Example 95]
< 5 nM

----------
Entries and their measured pKi follow.
# systemUnderTest: purified human Factor XIa (Homo sapiens (Human), UniProt P03951)
# Sequence (P03951 388-625): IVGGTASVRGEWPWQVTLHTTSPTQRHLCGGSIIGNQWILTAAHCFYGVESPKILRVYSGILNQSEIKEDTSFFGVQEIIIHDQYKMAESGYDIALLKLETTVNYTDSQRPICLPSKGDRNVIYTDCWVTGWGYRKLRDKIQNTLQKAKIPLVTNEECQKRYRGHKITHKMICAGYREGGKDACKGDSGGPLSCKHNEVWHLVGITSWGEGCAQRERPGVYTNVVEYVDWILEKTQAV
# Sequence (P03951 19-387 partner): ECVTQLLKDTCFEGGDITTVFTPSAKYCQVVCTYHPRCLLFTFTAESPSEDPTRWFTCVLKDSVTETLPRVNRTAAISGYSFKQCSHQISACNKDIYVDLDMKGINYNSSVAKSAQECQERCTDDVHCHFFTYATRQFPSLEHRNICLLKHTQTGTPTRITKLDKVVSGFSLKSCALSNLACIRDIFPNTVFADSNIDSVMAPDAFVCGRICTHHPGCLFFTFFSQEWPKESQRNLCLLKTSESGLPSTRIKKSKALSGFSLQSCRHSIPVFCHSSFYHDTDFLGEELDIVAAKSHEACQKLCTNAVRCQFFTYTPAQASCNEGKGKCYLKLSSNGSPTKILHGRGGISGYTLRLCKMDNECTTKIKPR
# methodNotes: Factor XIa chromogenic substrate (S-2366) inhibition assay
# Type: biochemical
# assaySetup: substrate S-2366, activity ranges, Table A
pKi: −log10 of the molar value. Counter-ions that a name gives are not always drawn.

Worked examples, 2 compounds total:
compound	result
CN(C)C(=O)C1CCN(c2cccc3c2CCN(C(=O)/C=C/c2c(-n4cnnn4)ccc(Cl)c2F)C3C(=O)Nc2ccc(C(=O)O)cc2)CC1 (racemic)	> 8.30
CC(C)(C)OC(=O)c1ccc(NC(=O)C2c3cccc(N4CCOCC4)c3CCN2C(=O)/C=C/c2c(-n3cnnn3)ccc(Cl)c2F)cc1 (racemic)	8.00 to 8.30

With those in mind, consider the next compound.
Please report the measured pKi for O=C(O)c1ccc(NC(=O)C2c3cccc(N4CCC(N5CCCC5)CC4)c3CCN2C(=O)/C=C/c2c(-n3cnnn3)ccc(Cl)c2F)cc1 (stereo not drawn) [Example 80, bis TFA Salt]
> 8.30

----------
# systemUnderTest: purified human Factor XIa (Homo sapiens (Human), UniProt P03951)
# methodNotes: Factor XIa chromogenic substrate (S-2366) inhibition assay
# Assay type: biochemical
# assaySetup: substrate S-2366, Table 1
# Description: The effectiveness of compounds of the present invention as inhibitors of the coagulation factors XIa, VIIa, IXa, Xa, XIIa, plasma kallikrein or thrombin, can be determined using a relevant purified serine protease, respectively, and an appropriate synthetic substrate. The rate of hydrolysis of the chromogenic or fluorogenic substrate by the relevant serine protease was measured both in the absence and presence of compounds of the present invention. […]
Counter-ions that a name gives are not always drawn.
measureName: Ki (nM)

molecule	resultUnit	Ki
CCOC(=O)c1ccc(NC(=O)[C@H]2c3cccc(N4CCOCC4)c3CC(C)(C)N2C(=O)/C=C/c2c(-n3cnnn3)ccc(Cl)c2F)cc1	nM	5740

A. O=C(O)c1ccc(NC(=O)[C@H]2c3cccc(N4CCCCC4=O)c3CCN2C(=O)/C=C/c2cc(Cl)c(F)cc2-n2cnnn2)cc1
B. CC1(C)Cc2c(cccc2N2CCNCC2)[C@H](C(=O)Nc2ccc(C(=O)O)cc2)N1C(=O)/C=C/c1c(-n2cnnn2)ccc(Cl)c1F [Example 193, bis-TFA salt]
Which entry shows the lesser value of Ki here, A or B ? Field: selected label. Fill in the label of the entry you choose.
B
(B: 107 nM, A: 5640 nM)

----------
# systemUnderTest: UniProt P03951
# methodNotes: Factor XIa chromogenic substrate (S-2366) inhibition assay
# Assay type: biochemical
# assaySetup: substrate S-2366, activity ranges, Table A
pKi: −log10 of the molar value.
measureName: pKi

molecule	systemUnderTest	pKi
CCOC(=O)c1ccc(NC(=O)C2c3cccc(N4CCOCC4)c3CCN2C(=O)C=Cc2c(-n3cnnn3)ccc(Cl)c2F)cc1 (stereo not drawn) [Example 185]	UniProt P03951	8.00 to 8.30
CN1CCN(c2cccc3c2CCN(C(=O)/C=C/c2c(-n4cnnn4)ccc(Cl)c2F)C3C(=O)Nc2ccc(C(=O)OC(C)(C)C)cc2)C(=O)C1 (stereo not drawn)	UniProt P03951	8.00 to 8.30

Please report the measured pKi for CC(=O)c1ccc(Cl)c(F)c1/C=C/C(=O)N1CCc2c(cccc2N2CCC(N3CCCC3)CC2)C1C(=O)Nc1ccc(C(=O)OC(C)(C)C)cc1 (racemic)
8.00 to 8.30

Please report the measured pKi for CN(C)C(=O)c1ccc(NC(=O)C2c3cccc(N4CCNCC4)c3CCN2C(=O)/C=C/c2cc(Cl)c(F)cc2-n2cnnn2)cc1 (racemic)
5.30 to 6.30

Please report the measured pKi for CC1(C)Cc2c(cccc2N2CCOCC2)[C@H](C(=O)Nc2ccc(C(=O)O)cc2)N1C(=O)/C=C/c1c(-n2cnnn2)ccc(Cl)c1F
6.30 to 7.00

Please report the measured pKi for CN1CCN(c2cccc3c2CC(C)(C)N(C(=O)/C=C/c2c(-n4cnnn4)ccc(Cl)c2F)[C@H]3C(=O)Nc2ccc(C(=O)O)cc2)CC1
6.30 to 7.00

----------
# systemUnderTest: purified human Factor XIa (Homo sapiens (Human), UniProt P03951)
# methodNotes: Factor XIa chromogenic substrate (S-2366) inhibition assay
# Assay type: biochemical
# assaySetup: substrate S-2366, activity ranges, Table A
Counter-ions that a name gives are not always drawn.
measureName: Ki

molecule	Ki
O=C(NC1CCCCC1)C1c2cccc(N3CCC(N4CCCC4)CC3)c2CCN1C(=O)/C=C/c1c(-n2cnnn2)ccc(Cl)c1F (racemic)	< 5 nM

Please report the measured Ki for O=C(Nc1ccccc1)c1ccc(NC(=O)C2c3cccc(N4CCNCC4)c3CCN2C(=O)/C=C/c2cc(Cl)c(F)cc2-n2cnnn2)cc1 (racemic)
100 to 500 nM

Please report the measured Ki for CCOC(=O)c1ccc(NC(=O)[C@@H]2c3cccc(N4CCOCC4)c3CC(C)(C)N2C(=O)/C=C/c2c(-n3cnnn3)ccc(Cl)c2F)cc1
5 to 10 nM

Please report the measured Ki for COC(=O)Nc1ccc(NC(=O)C2c3cccc(N4CCOCC4)c3CCN2C(=O)/C=C/c2c(-n3cnnn3)ccc(Cl)c2F)cc1 (racemic)
100 to 500 nM

Please report the measured Ki for CC(=O)c1ccc(Cl)c(F)c1/C=C/C(=O)N1CCc2c(cccc2N2CCN(C)CC2)C1C(=O)Nc1ccc(C(=O)O)cc1 (stereo not drawn) [Example 79, bis-TFA Salt]
< 5 nM

Please report the measured Ki for CN1CCCN(c2cccc3c2CCN(C(=O)C=Cc2c(-n4cnnn4)ccc(Cl)c2F)C3C(=O)Nc2ccc(C(=O)O)cc2)CC1 (stereo not drawn)
< 5 nM

Please report the measured Ki for CCOC(=O)c1ccc(NC(=O)C2c3cccc(N4CCC(N5CCCC5)CC4)c3CCN2C(=O)C=Cc2c(C(F)(F)F)ccc(Cl)c2F)cc1 (stereo not drawn)
5 to 10 nM

Please report the measured Ki for CC(=O)N1CCN(c2cccc3c2CC(C)(C)N(C(=O)/C=C/c2c(-n4cnnn4)ccc(Cl)c2F)[C@@H]3C(=O)Nc2ccc(C(=O)O)cc2)CC1
< 5 nM

Please report the measured Ki for CCOC(=O)c1ccc(NC(=O)C2c3cccc(N4CCS(=O)(=O)CC4)c3CCN2C(=O)/C=C/c2c(-n3cnnn3)ccc(Cl)c2F)cc1 (racemic)
5 to 10 nM

Please report the measured Ki for Cn1ncc2cc(NC(=O)C3c4cccc(N5CCC(N6CCCC6)CC5)c4CCN3C(=O)/C=C/c3c(-n4cnnn4)ccc(Cl)c3F)ccc21 (racemic)
< 5 nM

Please report the measured Ki for CCOC(=O)C1CCN(c2cccc3c2CCN(C(=O)/C=C/c2c(-n4cnnn4)ccc(Cl)c2F)C3C(=O)Nc2ccc(C(=O)O)cc2)CC1 (racemic)
< 5 nM

Please report the measured Ki for CCOC(=O)c1ccc(NC(=O)C2c3cccc(N4CCOCC4=O)c3CCN2C(=O)/C=C/c2c(-n3cnnn3)ccc(Cl)c2F)cc1 (racemic)
5 to 10 nM

// provenance: patent US10208021B2
